Provide the recorded GI50 for the entries that follow.
# Test system: UO-31
# test: NCI tumour cell line growth inhibition, 48 h
The source made the active and inactive calls. Cut-off read from the data, not from the text of the source: active = GI50 up to about 1.1 µM and inactive = higher.

Example entries begin here.
Request body: readout GI50, system UO-31, query C[C@]12C=CC(=O)C=C1CC[C@@H]1[C@@H]2CC[C@@]2(C)[C@H]1CC[C@]2(O)C(N)=O . Return the value.
> 100 µM (inactive)

Record O=c1[nH]nc(-c2ccccc2)c(-c2ccccc2)c1-n1nc(-c2ccccc2)c2ccccc2c1=O : what is its GI50 with UO-31?
71.8 µM (inactive)

# value lookup — system UO-31, readout GI50, item CC(=O)OC1CC2C(C)(C)C(=O)C=C[C@]2(C)C2CCC3(C)C(=CC(=O)C3c3ccoc3)[C@]12C (some centres undefined)
18.9 µM (inactive)

Now take the following compound into account.
Request: GI50, test system UO-31, entry CN(CCCNC(=O)c1nn(-c2ccc(Cl)cc2Cl)c2c1Cc1ccccc1-2)CCCNC(=O)c1nn(-c2ccc(Cl)cc2Cl)c2c1Cc1ccccc1-2
1.82 µM (inactive)
